- Assay Explanation: Sweetening potency: taste comparison by a team of eight experienced people with a sucrose reference solution
- Recorded Conditions: Table 3; weight basis, compared with a 2% aqueous solution of sucrose
Param threshold (2000) applies to SP (relative sweetening potency); output Yes when value >= threshold, No when value < threshold.

Solved cases (3 shown):
[[record]]
compound = "CO[C@H](C(=O)N[C@@H](CCC(=O)O)C(=O)Nc1ccc(C#N)nc1)c1ccccc1"
group = "Yes"

[[record]]
compound = "CCCO[C@@H](C)C(=O)N[C@@H](CCC(=O)O)C(=O)Nc1ccc(C#N)cc1"
group = "No"

[[record]]
compound = "CCCO[C@H](C)C(=O)N[C@@H](CCC(=O)O)C(=O)Nc1ccc(C#N)cc1"
group = "No"


INPUT: Tell me whether SP (relative sweetening potency) is at least 2000 here: `CCCC[C@H](C)C(=O)N[C@@H](CCC(=O)O)C(=O)Nc1ccc(C#N)cc1`
OUTPUT: Yes

INPUT: Does `CO[C@@H](C(=O)N[C@@H](CCC(=O)O)C(=O)Nc1ccc(C#N)nc1)c1ccccc1` have a reported SP (relative sweetening potency) of at least 2000?
OUTPUT: Yes

INPUT: Hi team, for N#Cc1ccc(NC(=O)[C@H](CCC(=O)O)NC(=O)C(Cl)c2ccccc2)cc1 (some centres unmarked) , is the recorded SP (relative sweetening potency) at or above 2000?
OUTPUT: Yes

INPUT: I'd appreciate it if you could say whether `CCC[C@H](C)C(=O)N[C@@H](CCC(=O)O)C(=O)Nc1ccc(C#N)cc1` has SP (relative sweetening potency) at least equal to 2000.
OUTPUT: Yes

INPUT: Form field: SP (relative sweetening potency) at least 2000? Entry: `CCCC[C@H](C)C(=O)N[C@@H](CCC(=O)O)C(=O)Nc1cnc(C#N)nc1`
OUTPUT: Yes

INPUT: # bool: SP (relative sweetening potency) of `C[C@H](C(=O)N[C@@H](CCC(=O)O)C(=O)Nc1ccc(C#N)cc1)c1ccccc1` >= 2000
OUTPUT: No

INPUT: Decide: SP (relative sweetening potency) of `C[C@@H](C(=O)N[C@@H](CCC(=O)O)C(=O)Nc1ccc(C#N)nc1)c1ccccc1` >= 2000?
OUTPUT: Yes

INPUT: Decide: is the reported value of SP (relative sweetening potency) for `N#Cc1ccc(NC(=O)[C@H](CCC(=O)O)NC(=O)C2(c3ccccc3)CCCC2)cn1` equal to or greater than 2000?
OUTPUT: Yes

INPUT: Given the entry `C[C@H](C(=O)N[C@@H](CCC(=O)O)C(=O)Nc1ccc(C#N)nc1)c1ccccc1` , answer whether its SP (relative sweetening potency) meets or surpasses 2000.
OUTPUT: Yes

INPUT: SP (relative sweetening potency) >= 2000 for `CCCC[C@@H](C)C(=O)N[C@@H](CCC(=O)O)C(=O)Nc1ccc(C#N)cc1` ?
OUTPUT: Yes
